Biological target: Alpha-2A adrenergic receptor (Mus musculus)
Sequence (Q1HL33 whole entry): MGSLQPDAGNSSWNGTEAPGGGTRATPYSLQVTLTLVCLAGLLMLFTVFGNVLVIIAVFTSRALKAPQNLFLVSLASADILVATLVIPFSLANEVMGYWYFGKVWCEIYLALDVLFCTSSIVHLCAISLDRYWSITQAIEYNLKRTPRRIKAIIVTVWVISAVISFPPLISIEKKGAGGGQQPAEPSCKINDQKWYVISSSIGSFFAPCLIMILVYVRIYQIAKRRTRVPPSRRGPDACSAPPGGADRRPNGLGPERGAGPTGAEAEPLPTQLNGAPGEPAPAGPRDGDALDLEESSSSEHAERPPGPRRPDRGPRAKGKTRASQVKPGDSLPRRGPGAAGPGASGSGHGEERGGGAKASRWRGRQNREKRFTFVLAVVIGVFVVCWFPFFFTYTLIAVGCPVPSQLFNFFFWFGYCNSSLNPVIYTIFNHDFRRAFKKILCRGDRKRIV
endpoint name: pKi
Schema: pKi number; meaning minus log10 of the concentration expressed in molar units.

Past entries and their recorded results:
Cc1cccc(C)c1N=C1NCCCS1 | 5.62
Oc1ccc2c(c1O)CCC[C@@H]2C1=NCCN1 | 8.01
COC1(C2=NCCN2)COc2ccccc2O1 (stereo not drawn) | 9.21
CCc1cccc(CC)c1NC1=NCCN1 | 6.27

Entry c1cc2c(c(NC3=NCCN3)c1)CCCC2 — recorded pKi = 7.81

Entry NCC(O)c1ccc(O)c(O)c1 (stereo not drawn) [Noradrenaline,(+)] — recorded pKi = 5.85

Entry Cc1cccc([C@@H](C)c2cnc[nH]2)c1C — recorded pKi = 8.47

* * *

Reported Ki, Alpha-2C adrenergic receptor (Homo sapiens).
Please state the figure in µM; there is no need to write the unit.

NCC(O)c1ccc(O)c(O)c1 (stereo not drawn) [Noradrenaline,(+)] | 1.35
Cc1cccc([C@@H](C)c2cnc[nH]2)c1C | 0.0955
c1ccc2ccccc2c1 | 0.00331

Entry Cc1cc(C(C)(C)C)cc(C)c1CC1=NCCN1 — recorded Ki = 0.129
